Data origin: the supplement of paper PMC12042874

assay: amyloid nucleation score (Sup35N fusion, yeast selection) (log enrichment); library NNK2; higher = more nucleation; inactive = no reads after selection;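 note: zero at mode of non-aggregating sequences after 7 days selection at 30°C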
amyloid nucleation score vs 0.7: at or above is true (1), below is false (0).

Worked examples, 5 sequences total:
ENLSQQMFWFKYAKVWGNVH
false (0)
LEYCDATLVVRDRQVSAVFL
false (0)
NSAIVLHTSYIHFVFYSVFY
false (0)
IREGMWCSRGMHHTRLRDFS
false (0)
SIELNLPMFSIRVKMCSRGE
true (1)

Query: Assess whether reported amyloid nucleation score for "WGWKYMLEELN" sits at 0.7 or higher.
Result: false (0)

Query: Assess whether reported amyloid nucleation score for "VSMAIFGSSNILYSIRSLLE" sits at 0.7 or higher.
Result: true (1)

Query: Assess whether reported amyloid nucleation score for "GNIAVYNDAILLVWDNESRT" sits at 0.7 or higher.
Result: false (0)

Query: Assess whether reported amyloid nucleation score for "RHGVVLSNVSKSVVSVPGAK" sits at 0.7 or higher.
Result: false (0)

Query: Assess whether reported amyloid nucleation score for "VTKHLGEARKLVLDQRLHWG" sits at 0.7 or higher.
Result: true (1)
